Molecular target: T1, IL-18 receptor on HEK-Blue IL18R reporter cells (UniProt Q13478 19-541; O95256 20-599, limits assumed)
T1 sequence (looked up) 1: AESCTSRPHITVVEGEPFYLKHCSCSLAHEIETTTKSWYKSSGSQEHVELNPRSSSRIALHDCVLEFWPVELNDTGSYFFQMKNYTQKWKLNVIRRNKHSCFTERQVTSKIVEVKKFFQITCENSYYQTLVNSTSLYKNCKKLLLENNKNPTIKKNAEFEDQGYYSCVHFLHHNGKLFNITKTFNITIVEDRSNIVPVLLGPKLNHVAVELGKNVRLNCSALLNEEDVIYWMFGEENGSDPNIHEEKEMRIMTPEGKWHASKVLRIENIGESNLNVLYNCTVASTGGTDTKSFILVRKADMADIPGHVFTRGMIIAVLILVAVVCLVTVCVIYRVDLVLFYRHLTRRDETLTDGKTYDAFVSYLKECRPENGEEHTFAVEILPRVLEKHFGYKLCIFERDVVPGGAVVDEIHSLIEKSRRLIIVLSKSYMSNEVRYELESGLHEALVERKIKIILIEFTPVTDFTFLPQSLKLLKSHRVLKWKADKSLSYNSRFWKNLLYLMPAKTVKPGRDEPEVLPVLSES
T1 sequence (looked up) 2: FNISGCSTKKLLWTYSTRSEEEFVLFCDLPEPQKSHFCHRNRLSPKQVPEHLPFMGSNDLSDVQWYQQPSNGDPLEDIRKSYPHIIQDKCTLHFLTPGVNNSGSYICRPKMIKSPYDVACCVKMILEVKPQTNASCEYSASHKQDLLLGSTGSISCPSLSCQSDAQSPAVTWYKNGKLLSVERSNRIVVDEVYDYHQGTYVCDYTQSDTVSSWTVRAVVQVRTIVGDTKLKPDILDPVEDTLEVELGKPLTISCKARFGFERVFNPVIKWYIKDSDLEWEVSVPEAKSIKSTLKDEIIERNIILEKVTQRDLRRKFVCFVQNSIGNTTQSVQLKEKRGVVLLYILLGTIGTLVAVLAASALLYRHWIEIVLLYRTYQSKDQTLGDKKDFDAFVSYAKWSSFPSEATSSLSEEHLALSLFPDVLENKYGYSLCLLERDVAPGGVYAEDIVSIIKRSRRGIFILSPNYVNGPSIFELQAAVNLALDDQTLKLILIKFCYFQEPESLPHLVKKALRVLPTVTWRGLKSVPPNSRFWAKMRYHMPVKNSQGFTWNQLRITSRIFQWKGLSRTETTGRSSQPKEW
Test: cell-based or functional assay
Kindly apply the following: met if EC50, HEK-Blue IL18R reporter (SEAP) is less than 500 pM, not met in every other case.

binder	answerLabel
modified IL-18 polypeptide SEQ ID NO: 233 (E6K, V11I, C38A, I49R, K53A, T63A, C76A, C127A) (ligand) YFGKLKSKLSIIRNLNDQVLFIDQGNRPLFEDMTDSDARDNAPRTIFIRSMYADSQPRGMAVAISVKCEKISTLSAENKIISFKEMNPPDNIKDTKSDIIFFQRSVPGHDNKMQFESSSYEGYFLAAEKERDLFKLILKKEDELGDRSIMFTVQNED	met
modified IL-18 polypeptide SEQ ID NO: 61 (E6K, C38A, K53A, C76A) (ligand) YFGKLKSKLSVIRNLNDQVLFIDQGNRPLFEDMTDSDARDNAPRTIFIISMYADSQPRGMAVTISVKCEKISTLSAENKIISFKEMNPPDNIKDTKSDIIFFQRSVPGHDNKMQFESSSYEGYFLACEKERDLFKLILKKEDELGDRSIMFTVQNED	met
modified IL-18 polypeptide SEQ ID NO: 209 (F2A, V11I, C38A, K53A, C76A, C127A) (ligand) YAGKLESKLSIIRNLNDQVLFIDQGNRPLFEDMTDSDARDNAPRTIFIISMYADSQPRGMAVTISVKCEKISTLSAENKIISFKEMNPPDNIKDTKSDIIFFQRSVPGHDNKMQFESSSYEGYFLAAEKERDLFKLILKKEDELGDRSIMFTVQNED	not met
modified IL-18 polypeptide SEQ ID NO: 244 (N-terminal G, E6K, V11I, C38A, M51G, K53A, T63A, C76A, C127A) (ligand) GYFGKLKSKLSIIRNLNDQVLFIDQGNRPLFEDMTDSDARDNAPRTIFIISGYADSQPRGMAVAISVKCEKISTLSAENKIISFKEMNPPDNIKDTKSDIIFFQRSVPGHDNKMQFESSSYEGYFLAAEKERDLFKLILKKEDELGDRSIMFTVQNED	not met
modified IL-18 polypeptide SEQ ID NO: 57 (E6K, C38S, K53A) (ligand) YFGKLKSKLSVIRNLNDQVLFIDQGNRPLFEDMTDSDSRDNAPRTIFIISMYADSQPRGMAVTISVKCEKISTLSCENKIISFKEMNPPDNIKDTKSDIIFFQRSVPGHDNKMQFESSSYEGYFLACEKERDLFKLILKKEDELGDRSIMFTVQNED	not met
modified IL-18 polypeptide SEQ ID NO: 219 (V11I, C38A, K53A, C76A, G108A, C127A) (ligand) YFGKLESKLSIIRNLNDQVLFIDQGNRPLFEDMTDSDARDNAPRTIFIISMYADSQPRGMAVTISVKCEKISTLSAENKIISFKEMNPPDNIKDTKSDIIFFQRSVPAHDNKMQFESSSYEGYFLAAEKERDLFKLILKKEDELGDRSIMFTVQNED	not met
modified IL-18 polypeptide SEQ ID NO: 211 (V11I, T34A, C38A, K53A, C76A, C127A) (ligand) YFGKLESKLSIIRNLNDQVLFIDQGNRPLFEDMADSDARDNAPRTIFIISMYADSQPRGMAVTISVKCEKISTLSAENKIISFKEMNPPDNIKDTKSDIIFFQRSVPGHDNKMQFESSSYEGYFLAAEKERDLFKLILKKEDELGDRSIMFTVQNED	not met
modified IL-18 polypeptide SEQ ID NO: 207 (V11I, C38A, M51G, K53A, C76A, C127A) (ligand) YFGKLESKLSIIRNLNDQVLFIDQGNRPLFEDMTDSDARDNAPRTIFIISGYADSQPRGMAVTISVKCEKISTLSAENKIISFKEMNPPDNIKDTKSDIIFFQRSVPGHDNKMQFESSSYEGYFLAAEKERDLFKLILKKEDELGDRSIMFTVQNED	not met
modified IL-18 polypeptide SEQ ID NO: 240 (E6R, V11I, C38A, K53A, T63A, C76A, C127A) (ligand) YFGKLRSKLSIIRNLNDQVLFIDQGNRPLFEDMTDSDARDNAPRTIFIISMYADSQPRGMAVAISVKCEKISTLSAENKIISFKEMNPPDNIKDTKSDIIFFQRSVPGHDNKMQFESSSYEGYFLAAEKERDLFKLILKKEDELGDRSIMFTVQNED	met
modified IL-18 polypeptide SEQ ID NO: 228 (V11I, C38A, C76A, S105I, C127A) (ligand) YFGKLESKLSIIRNLNDQVLFIDQGNRPLFEDMTDSDARDNAPRTIFIISMYKDSQPRGMAVTISVKCEKISTLSAENKIISFKEMNPPDNIKDTKSDIIFFQRIVPGHDNKMQFESSSYEGYFLAAEKERDLFKLILKKEDELGDRSIMFTVQNED	not met
modified IL-18 polypeptide SEQ ID NO: 232 (E6K, V11I, C38A, I49M, K53A, T63A, C76A, C127A) (ligand) YFGKLKSKLSIIRNLNDQVLFIDQGNRPLFEDMTDSDARDNAPRTIFIMSMYADSQPRGMAVAISVKCEKISTLSAENKIISFKEMNPPDNIKDTKSDIIFFQRSVPGHDNKMQFESSSYEGYFLAAEKERDLFKLILKKEDELGDRSIMFTVQNED	met
modified IL-18 polypeptide SEQ ID NO: 241 (N-terminal 4xG, E6K, V11I, C38A, K53A, T63A, C76A, C127A) (ligand) GGGGYFGKLKSKLSIIRNLNDQVLFIDQGNRPLFEDMTDSDARDNAPRTIFIISMYADSQPRGMAVAISVKCEKISTLSAENKIISFKEMNPPDNIKDTKSDIIFFQRSVPGHDNKMQFESSSYEGYFLAAEKERDLFKLILKKEDELGDRSIMFTVQNED	not met
modified IL-18 polypeptide SEQ ID NO: 220 (V11I, C38A, K53A, C76A, H109A, C127A) (ligand) YFGKLESKLSIIRNLNDQVLFIDQGNRPLFEDMTDSDARDNAPRTIFIISMYADSQPRGMAVTISVKCEKISTLSAENKIISFKEMNPPDNIKDTKSDIIFFQRSVPGADNKMQFESSSYEGYFLAAEKERDLFKLILKKEDELGDRSIMFTVQNED	not met
